procedure_text: HRE-luciferase induction in zinc-containing medium – U2OS HRE-luc cells, dry powder, mechanism study for HIF pathway activator project, dose response (AID 504324)
experimental_context: U2OS HRE-luciferase reporter, zinc medium, luminescence; at 38 µM (top of the series)
As shown below, each of these molecules has a reported activity change, negative = decrease value.
parameter_measured: activity change, negative = decrease (%)

* O=C(Nc1ncc2ccccc2n1)c1cc(-c2ccccc2)on1 | 152
* COc1ccc(CNc2nc(-c3ccccn3)nnc2-c2ccccc2)cc1 | 5130
* Oc1ccc(CN2CCC3CCCCC3C2)c2cccnc12 (configuration not stated) | 916
* c1ccc(CCNc2nc(-c3ccccn3)nnc2-c2ccccc2)cc1 | 4750
* O=C(NCCN1CCOCC1)c1cc(-c2ccccc2)on1 | 1440
* O=C(NC1CCc2ccccc2C1)c1cc(-c2ccccc2)on1 (configuration not stated) | -9.29
* CC1CN(Cc2ccc(O)c3ncccc23)CC(C)O1 (configuration not stated) | 4.72
* OCC1CCN(c2nc(-c3ccccn3)nnc2-c2ccccc2)CC1 | 1330
* COc1ccccc1N1CCN(Cc2ccc(O)c3ncccc23)CC1 | 52.8
* Cc1cccc(NC(=O)c2cc(-c3ccccc3)on2)n1 | 39.8
* Oc1ccc(CNC2Cc3ccccc3C2)c2cccnc12 | 314
* CN(C)c1nc(-c2ccccn2)nnc1-c1ccccc1 | 3380

Data credit: PubChem BioAssay AID504324
